B1: PTPN9 (parent)
chain: NKWTVQYNVSPLSWNVAVKFLMAR

variants of: B1; test: protein stability index of a GFP-peptide fusion (GPS, HEK-293T) (PSI 1-6); higher = more stable; conditions: c terminus: a fixed tail appended;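 note: lentivirally expressed fusions sorted by FACS into six bins by GFP to DsRed ratio, PSI derived from sequencing read proportions per bin multiplied by bin number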
Measured protein stability index values are reported for all entries that follow.
quantity: protein stability index

[
  {
    "sequence_data": "NKWTVQYNVSPLSWNVAVKDLMAR",
    "result": 1.97
  },
  {
    "sequence_data": "NKWTVQYNVSPLSWNVAYKFLMAR",
    "result": 2.04
  },
  {
    "sequence_data": "NKWTVQYNVSPLSWNVNVKFLMAR",
    "result": 1.22
  },
  {
    "sequence_data": "NKWTVQSNVSPLSWNVAVKFLMAR",
    "result": 2.84
  },
  {
    "sequence_data": "NKWTVQYNVSPLSWNVRVKFLMAR",
    "result": 1.47
  },
  {
    "sequence_data": "NKWTVQYNVSPLSWNVAVKFLKAR",
    "result": 2.73
  },
  {
    "sequence_data": "NKWTVQYNRSPLSWNVAVKFLMAR",
    "result": 1.55
  },
  {
    "sequence_data": "NKWTVQYNVSPLSWNVAVPFLMAR",
    "result": 1.28
  },
  {
    "sequence_data": "NKWTVQYNVSPLSWNVAVKFLMAF",
    "result": 1.41
  },
  {
    "sequence_data": "NKWTVQYNVSPLSWNVAVKFLMPR",
    "result": 2.3
  },
  {
    "sequence_data": "NKWTVQYNYSPLSWNVAVKFLMAR",
    "result": 2.1
  },
  {
    "sequence_data": "NKWTWQYNVSPLSWNVAVKFLMAR",
    "result": 5.45
  },
  {
    "sequence_data": "NKWTVQYNVSPLSWNVAVKFLPAR",
    "result": 2.29
  },
  {
    "sequence_data": "NKWTVQYNPSPLSWNVAVKFLMAR",
    "result": 1.6
  },
  {
    "sequence_data": "NKWDVQYNVSPLSWNVAVKFLMAR",
    "result": 2.22
  },
  {
    "sequence_data": "NKWTVQYNVSPLSWFVAVKFLMAR",
    "result": 2.02
  },
  {
    "sequence_data": "NKWTVQYNVSPLSANVAVKFLMAR",
    "result": 2.09
  }
]
